Source listed as BindingDB's records for doi:10.1021/jm020951i.

target: Plasmepsin I (Plasmodium falciparum, UniProt P39898)
Sequence (P39898 whole entry): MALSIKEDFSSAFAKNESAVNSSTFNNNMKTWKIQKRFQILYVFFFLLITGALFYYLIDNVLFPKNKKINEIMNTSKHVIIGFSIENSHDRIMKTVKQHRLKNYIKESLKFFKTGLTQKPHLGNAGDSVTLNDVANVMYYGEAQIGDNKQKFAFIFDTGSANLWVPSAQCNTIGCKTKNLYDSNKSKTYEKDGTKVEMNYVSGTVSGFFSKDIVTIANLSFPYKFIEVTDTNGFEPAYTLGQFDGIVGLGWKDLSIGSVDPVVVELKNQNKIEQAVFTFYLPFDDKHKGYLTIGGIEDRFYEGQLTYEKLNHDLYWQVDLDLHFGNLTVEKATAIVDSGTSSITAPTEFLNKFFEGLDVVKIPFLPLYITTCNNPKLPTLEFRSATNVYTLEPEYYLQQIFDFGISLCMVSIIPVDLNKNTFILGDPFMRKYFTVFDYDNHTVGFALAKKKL
observation.type: Ki (nM)

# query.smiles, value.reported
records = [
    ("CC(C)C[C@H](NC[C@H](O)[C@H](Cc1ccccc1)NC(=O)[C@@H](NC(=O)c1ccccn1)C(C)C)C(N)=O", 2900),
    ("CC(C)[C@H](NC(=O)c1ccccn1)C(=O)N[C@@H](Cc1ccccc1)[C@@H](O)CN[C@H](Cc1ccccc1)C(N)=O", 8000),
    ("CC(C)[C@H](NC(=O)c1ccccn1)C(=O)N[C@@H](Cc1ccccc1)[C@@H](O)CN[C@@H](Cc1ccccc1)C(N)=O", 2100),
]

* * *

target: Plasmepsin II (Plasmodium falciparum (isolate HB3)); experiment: Enzyme Inhibition Measurements; conditions: pH 4.5; 22 °C
Sequence (P46925 whole entry): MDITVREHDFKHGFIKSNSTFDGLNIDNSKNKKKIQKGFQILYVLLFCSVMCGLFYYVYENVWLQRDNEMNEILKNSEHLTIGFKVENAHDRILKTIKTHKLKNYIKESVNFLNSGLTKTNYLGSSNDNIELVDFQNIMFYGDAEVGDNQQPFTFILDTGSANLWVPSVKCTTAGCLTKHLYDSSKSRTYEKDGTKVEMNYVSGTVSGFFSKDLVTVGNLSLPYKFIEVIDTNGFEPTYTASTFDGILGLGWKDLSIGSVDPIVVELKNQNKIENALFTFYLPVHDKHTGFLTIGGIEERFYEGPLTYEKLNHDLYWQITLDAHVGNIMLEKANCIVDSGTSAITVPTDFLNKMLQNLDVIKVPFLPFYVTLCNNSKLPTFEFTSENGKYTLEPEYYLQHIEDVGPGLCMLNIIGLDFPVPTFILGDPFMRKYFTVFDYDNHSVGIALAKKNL

# query.smiles, Ki [µM]
data = [
    ("CC(C)[C@H](NC(=O)c1ccccn1)C(=O)N[C@@H](Cc1ccccc1)[C@@H](O)CN[C@@H](Cc1ccccc1)C(N)=O", 3.2),
    ("CC(C)C[C@H](NC[C@H](O)[C@H](Cc1ccccc1)NC(=O)[C@@H](NC(=O)c1ccccn1)C(C)C)C(N)=O", 3.3),
    ("CC(C)[C@H](NC(=O)c1ccccn1)C(=O)N[C@@H](Cc1ccccc1)[C@@H](O)CN[C@H](Cc1ccccc1)C(N)=O", 3.5),
]
